As shown below, each of these compounds has a reported DC50 value.
# target_of_assay: IRAK4 (Homo sapiens, UniProt Q9NWZ3)
# Construct: Effect of the Compounds on IRAK4 Protein Degradation in THP1 Cells; endogenous in cells; host or cells: THP-1 cells
# Sequence (Q9NWZ3 whole entry): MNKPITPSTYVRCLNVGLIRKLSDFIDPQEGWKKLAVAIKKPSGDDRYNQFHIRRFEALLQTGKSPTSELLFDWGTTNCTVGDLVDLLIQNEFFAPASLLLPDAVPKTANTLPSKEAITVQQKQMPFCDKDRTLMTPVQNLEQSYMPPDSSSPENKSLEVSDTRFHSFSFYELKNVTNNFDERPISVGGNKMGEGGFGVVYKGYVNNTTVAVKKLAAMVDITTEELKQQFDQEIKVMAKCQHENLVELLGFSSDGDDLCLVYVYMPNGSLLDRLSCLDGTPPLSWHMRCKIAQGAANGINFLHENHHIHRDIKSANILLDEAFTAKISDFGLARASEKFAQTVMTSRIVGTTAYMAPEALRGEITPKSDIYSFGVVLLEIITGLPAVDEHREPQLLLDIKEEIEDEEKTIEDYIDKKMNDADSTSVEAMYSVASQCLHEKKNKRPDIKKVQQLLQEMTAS
# test_description: IRAK4 protein degradation in THP1 cells (Western blot)
# Format: cell-based
# condition_details: THP-1 cells, 24 h
Please reply with the bare figure in nM and do not write the unit itself.

Study these solved cases before continuing.
CN(C)c1cc2nn([C@H]3CC[C@H](CN4CC[C@@H](n5cc6ccc(C7CCC(=O)NC7=O)cc6n5)[C@H](F)C4)CC3)cc2cc1NC(=O)c1cnn2cccnc12 (some centres unmarked) :: 1.09
CN(C)c1cc2nn([C@H]3CC[C@H](CN4CC[C@@H](n5cc6cc(C7CCC(=O)NC7=O)c(F)cc6n5)[C@H](F)C4)CC3)cc2cc1NC(=O)c1cnn2cccnc12 (some centres unmarked) :: 1.6
CN(C)c1cc2nn([C@H]3CC[C@H](CN4CCC(c5nc6ccc(N7CCC(=O)NC7=O)cc6o5)CC4)CC3)cc2cc1NC(=O)c1cnn2cccnc12 :: 0.98
CN(C)c1cc2nn([C@H]3CC[C@H](CN4C[C@@H](F)[C@H](n5cc6c(F)cc(N7CCC(=O)NC7=O)cc6n5)C4)CC3)cc2cc1NC(=O)c1cnn2cccnc12 :: 8.45

Lab note: next compound to report on.
Input: Request the reported DC50 associated with CN(C)c1cc2nn([C@H]3CC[C@H](CN4CC[C@@H](n5cc6cc(F)c(C7CCC(=O)NC7=O)cc6n5)[C@H](F)C4)CC3)cc2cc1NC(=O)c1cnn2cccnc12 (some centres unmarked)
Output: 9.41

The origin of these recorded values is patent US20260216348A1.
